# tested_target: SARS-CoV-2 nsp14 MTase (Severe acute respiratory syndrome coronavirus 2)
# assay_procedure: biochemical
# Type: biochemical
# measurement_setup: IC50, at Km of both SAM and RNA substrates; mean ± SD, n = 3
reported_property: IC50 (µM)
One number for each entry, in µM.

IN: Would you kindly share the measured IC50 for Nc1ncnc2c1ncn2[C@@H]1O[C@H](CSCc2ccc(Cl)cc2)[C@@H](O)[C@H]1O ?
OUT: 5.3

----------
# tested_target: nsp14 (Severe acute respiratory syndrome coronavirus 2, UniProt P0DTD1)
# assay_procedure: surface plasmon resonance (SPR) binding to immobilized full-length biotinylated nsp14
# Set-up: species or system SARS-CoV-2
# measurement_setup: SPR single-cycle kinetics; n = 3; read-out: KD (kinetic fitting)
reported_property: Kd
Express your answer as a number followed by its unit.

IN: May I ask what Kd has been recorded for Nc1ncnc2c1ncn2[C@@H]1O[C@H](CSCc2ccc(Cl)cc2)[C@@H](O)[C@H]1O [NSC620333] ?
OUT: 427 nM
